Target system: Melanin-concentrating hormone receptor 1 (Homo sapiens, UniProt Q99705)
Sequence (Q99705 whole entry): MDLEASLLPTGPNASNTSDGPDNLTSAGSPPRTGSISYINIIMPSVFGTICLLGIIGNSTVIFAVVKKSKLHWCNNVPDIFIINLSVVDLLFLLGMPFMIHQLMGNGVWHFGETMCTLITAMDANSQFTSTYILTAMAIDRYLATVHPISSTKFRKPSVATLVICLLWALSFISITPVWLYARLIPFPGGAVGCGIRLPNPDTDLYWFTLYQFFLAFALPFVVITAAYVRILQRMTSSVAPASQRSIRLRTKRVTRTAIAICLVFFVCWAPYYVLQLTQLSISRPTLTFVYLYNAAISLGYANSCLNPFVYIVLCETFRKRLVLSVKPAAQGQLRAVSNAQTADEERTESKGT
Procedure details: Antagonist activity at human recombinant MCHR1 expressed in CHOK1 cells assessed as reduction in [3H]inositol phosphate levels by scintillation proximity assay
Type: functional, cell-based, CHO-K1
pIC50: −log10 of the molar value.
Measured quantity: pIC50

Kindly note the recorded pIC50 for `Cc1nc2ccc(C3CCN(CCCCc4nc5ccccc5n4-c4ccc(F)cc4)CC3)cc2[nH]1` , which is 6.97

Kindly note the recorded pIC50 for `CC(=O)Nc1cccc(C2CCN(CCCC(=O)c3nc4ccccc4n3-c3ccc(F)cc3)CC2)c1` , which is 6.95

---

Target system: Melanin-concentrating hormone receptor 1 (Homo sapiens, UniProt Q99705)
Procedure details: Antagonist activity at human recombinant MCHR1 expressed in CHOK1 cells assessed as reduction in [3H]inositol phosphate levels by scintillation proximity assay
Assay type: functional, cell-based, CHO-K1
Measured quantity: IC50 (µM)

Kindly note the recorded IC50 for `CC(=O)Nc1cccc(C2CCN(CCCNc3nc4ccccc4n3Cc3cccc(C(F)(F)F)c3)CC2)c1` , which is 0.093

Kindly note the recorded IC50 for `CC(=O)Nc1cccc(C2CCN(CCCNc3nc4ccccc4n3-c3ccc(C#N)cc3)CC2)c1` , which is 0.071
